Values from patent US10526309B2

biological target: Mer (Homo sapiens, UniProt Q12866); test: Mer kinase inhibition IC50; format: biochemical; conditions: Table 5; read-out: Mer IC50
measured property: IC50

Using the record for COc1cccc(Oc2ccnc(C#Cc3ccc(Nc4ncc(-c5ccccn5)c(N[C@H]5CC[C@H](O)CC5)n4)cc3)c2)c1 [UNC4393A] , report its IC50.
1 to 30 µM

Try the compound CC(C)Oc1ccnc(C#Cc2ccc(Nc3ncc(-c4ccccn4)c(N[C@H]4CC[C@H](O)CC4)n3)cc2)c1 [UNC4394A]
0.1 to 1 µM

* * *

Biological target: Mer (Homo sapiens, UniProt Q12866)
Sequence (Q12866 21-999): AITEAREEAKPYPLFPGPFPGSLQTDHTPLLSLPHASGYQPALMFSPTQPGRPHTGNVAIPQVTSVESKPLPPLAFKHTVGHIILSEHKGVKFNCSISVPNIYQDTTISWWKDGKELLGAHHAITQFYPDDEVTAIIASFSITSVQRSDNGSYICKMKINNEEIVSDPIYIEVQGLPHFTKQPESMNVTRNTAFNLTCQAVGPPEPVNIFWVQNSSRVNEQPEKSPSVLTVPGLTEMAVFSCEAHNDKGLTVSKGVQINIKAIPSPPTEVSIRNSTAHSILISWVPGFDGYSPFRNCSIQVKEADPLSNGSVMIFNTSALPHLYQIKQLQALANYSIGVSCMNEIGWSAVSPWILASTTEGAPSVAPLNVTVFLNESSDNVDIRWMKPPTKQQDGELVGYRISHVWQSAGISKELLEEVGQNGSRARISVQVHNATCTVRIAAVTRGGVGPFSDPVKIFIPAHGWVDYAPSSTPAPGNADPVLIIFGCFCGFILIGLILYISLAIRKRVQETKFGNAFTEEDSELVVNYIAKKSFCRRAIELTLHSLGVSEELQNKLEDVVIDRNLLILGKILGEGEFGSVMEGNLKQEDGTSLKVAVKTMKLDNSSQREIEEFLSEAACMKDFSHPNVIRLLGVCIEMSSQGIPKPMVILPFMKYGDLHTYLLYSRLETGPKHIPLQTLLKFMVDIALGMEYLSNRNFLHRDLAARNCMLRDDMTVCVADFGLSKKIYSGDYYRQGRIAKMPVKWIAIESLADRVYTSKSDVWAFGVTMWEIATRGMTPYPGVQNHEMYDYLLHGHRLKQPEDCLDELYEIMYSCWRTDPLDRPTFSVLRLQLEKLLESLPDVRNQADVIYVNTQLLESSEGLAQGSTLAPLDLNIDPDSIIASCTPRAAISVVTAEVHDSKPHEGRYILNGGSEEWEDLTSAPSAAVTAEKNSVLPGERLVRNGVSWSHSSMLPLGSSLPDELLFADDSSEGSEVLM
Assay: Mer kinase inhibition IC50
Assay type: biochemical
Conditions: Table 2; read-out: Mer IC50
pIC50: −log10 of the molar value.
What pIC50 was measured for each of the following?

Using the record for CN1CCN(Cc2ccc(-c3ccc(Nc4ncc(-c5ccccn5)c(N[C@H]5CC[C@H](O)CC5)n4)cc3)cc2)CC1 [UNC4437A] , report its pIC50.
6.00 to 7.00

Try the compound O[C@H]1CC[C@H](Nc2nc(Nc3ccc(C4=CCNCC4)cc3)ncc2-c2ccccn2)CC1 [UNC4402A]
6.00 to 7.00

Try the compound O[C@H]1CC[C@H](Nc2nc(Nc3ccc(C4=CCOCC4)cc3)ncc2-c2ccccn2)CC1 [UNC4434A]
7.00 to 8.00

Try the compound CN1CCC(N2CC=C(c3ccc(Nc4ncc(-c5ccccn5)c(N[C@H]5CC[C@H](O)CC5)n4)cc3)CC2)CC1 [UNC5052A]
7.00 to 8.00

Try the compound CC(C)Nc1nc(Nc2ccc(C3CCN(C)CC3)cc2)ncc1-c1ccccn1 [UNC5135A]
7.00 to 8.00

Try the compound CNc1nc(Nc2ccc(C3CCN(C)CC3)cc2)ncc1-c1ccccn1 [UNC5136A]
4.52 to 6.00

Try the compound O[C@H]1CC[C@H](Nc2nc(Nc3ccc(C4=CCCN(C5CCC5)C4)cc3)ncc2-c2ccccn2)CC1 [UNC5070A]
6.00 to 7.00

Try the compound O[C@H]1CC[C@H](Nc2nc(Nc3ccc(C4CCCNC4)cc3)ncc2-c2ccccn2)CC1 (stereo partly drawn) [UNC5129A]
6.00 to 7.00

Try the compound CC[C@H](N)C(=O)N1CC=C(c2ccc(Nc3ncc(-c4ccccn4)c(N[C@H]4CC[C@H](O)CC4)n3)cc2)CC1 [UNC4403A]
6.00 to 7.00

Try the compound CN1CCC(c2ccc(Nc3ncc(-c4ccccn4)c(NC4CCOCC4)n3)cc2)CC1 [UNC5134A]
6.00 to 7.00

Try the compound CN1CCC(c2ccc(Nc3ncc(-c4ccccn4)c(N[C@H]4CC[C@H](O)CC4)n3)cc2)CC1 [UNC5130A]
7.00 to 8.00

Try the compound CN1CCC(N2CCC(c3ccc(Nc4ncc(-c5ccccn5)c(N[C@H]5CC[C@H](O)CC5)n4)cc3)CC2)CC1 [UNC5072A]
7.00 to 8.00

Try the compound O[C@H]1CC[C@H](Nc2nc(Nc3ccc(C4CCNCC4)cc3)ncc2-c2ccccn2)CC1 [UNC5128A]
6.00 to 7.00

Try the compound CN1CCC(c2ccc(Nc3ncc(-c4ccccn4)c(N[C@H]4CC[C@H](C)CC4)n3)cc2)CC1 [UNC5133A]
6.00 to 7.00

Try the compound CN1CC=C(c2ccc(Nc3ncc(-c4ccccn4)c(N[C@H]4CC[C@H](O)CC4)n3)cc2)CC1 [UNC4431A]
6.00 to 7.00

Try the compound O[C@H]1CC[C@H](Nc2nc(Nc3ccc(-c4cccnc4)cc3)ncc2-c2ccccn2)CC1 [UNC4435A]
6.00 to 7.00

Try the compound CN1CCCC(c2ccc(Nc3ncc(-c4ccccn4)c(N[C@H]4CC[C@H](O)CC4)n3)cc2)C1 (stereo partly drawn) [UNC5131A]
7.00 to 8.00

Try the compound O[C@H]1CC[C@H](Nc2nc(Nc3ccc(C4=CCCNC4)cc3)ncc2-c2ccccn2)CC1 [UNC5113A]
7.00 to 8.00
